Target: UniProtKB P00742
Sequence (P00742 235-488 limits assumed): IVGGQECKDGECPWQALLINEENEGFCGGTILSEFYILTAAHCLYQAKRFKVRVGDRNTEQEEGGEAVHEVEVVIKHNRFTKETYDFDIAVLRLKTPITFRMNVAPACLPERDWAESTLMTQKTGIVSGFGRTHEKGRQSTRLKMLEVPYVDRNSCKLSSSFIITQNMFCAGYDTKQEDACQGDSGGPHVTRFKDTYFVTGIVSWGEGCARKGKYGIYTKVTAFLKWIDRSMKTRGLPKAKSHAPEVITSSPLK
Sequence (P00742 41-179 partner limits assumed): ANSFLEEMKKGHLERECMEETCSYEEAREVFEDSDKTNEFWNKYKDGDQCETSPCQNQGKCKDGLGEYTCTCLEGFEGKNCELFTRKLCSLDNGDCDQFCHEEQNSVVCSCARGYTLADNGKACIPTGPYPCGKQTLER
Assay: Related protease inhibition: FXa, fluorogenic substrate
Type: biochemical
Conditions: fluorogenic substrate at Km, 25° C.; H1-H3 = % activity at 40 μM
pIC50: −log10 of the molar value.
Overview of reported pIC50 across a group of compounds:
experimental.readout: pIC50

{"columns": ["smiles.repr", "reported"],
 "data": [
  ["Cc1ccncc1CNC(=O)c1nn(-c2cccc(Cl)c2)c2c1CCN(c1ccc3c(c1)C(=O)N(C)[C@@H](CO)CO3)C2=O", "< 4.40"],
  ["Cc1cc(CNC(=O)c2nn(-c3cccc(Cl)c3F)c3c2CCN(c2ccc4c(c2)C(=O)N(C)CC4)C3=O)n[nH]1", "4.40 to 5.00"],
  ["Cc1cc(C)c(CNC(=O)c2nn(-c3cccc(Cl)c3)c3c2CCN(c2ccc4c(c2)C(=O)N(CCO)CC4)C3=O)cn1", "< 4.40"],
  ["Cc1cc(CNC(=O)c2nn(-c3cccc(Cl)c3)c3c2CCN(c2ccc4c(c2)C(=O)N(C)CCO4)C3=O)nn1C", "5.52 to 6.00"],
  ["Cc1ccnnc1CNC(=O)c1nn(-c2cccc(Cl)c2)c2c1CCN(c1ccc3c(c1)C(=O)N(C)CC3)C2=O", "4.40 to 5.00"],
  ["C[C@H](NC(=O)c1nn(-c2cccc(Cl)c2)c2c1CCN(c1ccc3c(c1)C(=O)N(C)CC3)C2=O)C(=O)O", "< 4.40"],
  ["COc1cncc(CNC(=O)c2nn(-c3cccc(Cl)c3)c3c2CCN(c2ccc4c(c2)CN(CCO)CC4)C3=O)c1", "5.00 to 5.52"]
]}
